Hello, the source for this data is paper PMC9513230, in case you need it.

Biological target: PfHop (Plasmodium falciparum)
Construct: His; made in house; host or cells: E. coli XL1 Blue
Sequence (Q8ILC1 1-564): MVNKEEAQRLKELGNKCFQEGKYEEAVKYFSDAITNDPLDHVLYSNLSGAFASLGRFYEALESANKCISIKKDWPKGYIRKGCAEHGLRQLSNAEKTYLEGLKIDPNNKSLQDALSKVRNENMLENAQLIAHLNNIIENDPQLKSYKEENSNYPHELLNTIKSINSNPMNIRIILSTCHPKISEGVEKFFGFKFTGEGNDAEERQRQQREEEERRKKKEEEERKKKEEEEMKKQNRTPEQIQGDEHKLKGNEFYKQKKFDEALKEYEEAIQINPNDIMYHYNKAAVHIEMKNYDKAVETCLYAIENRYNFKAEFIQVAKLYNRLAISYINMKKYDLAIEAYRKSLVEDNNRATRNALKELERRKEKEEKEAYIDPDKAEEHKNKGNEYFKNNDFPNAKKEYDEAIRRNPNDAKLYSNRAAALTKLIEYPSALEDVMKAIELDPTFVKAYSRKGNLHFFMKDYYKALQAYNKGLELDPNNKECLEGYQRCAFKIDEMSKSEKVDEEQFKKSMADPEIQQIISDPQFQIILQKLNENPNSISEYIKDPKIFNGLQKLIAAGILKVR
Assay: SPR equilibrium binding to immobilized PfHop
Conditions: SPR, ligand PfHop immobilized, 25°C; read-out: KD
reported_property: Kd

• NS(=O)(=O)C#Cc1ccccc1 [PES, 2-Phenylthynesulfonamide] = 707 nM

---

Below is a list of entries, each paired with its recorded pIC50 value.
Target: PfHsp70-1-PfHop association (Plasmodium falciparum, UniProt Q8IB24+Q8ILC1)
Test: ELISA for the direct association of PfHsp70-1 and PfHop
Type: biochemical
Details: ligand PfHsp70-1, analyte PfHop
Experimental: An enzyme-linked immunosorbent assay (ELISA) was used to validate the effect of PES on the direct association of PfHsp70-1 and PfHop following a previously described protocol ([Mabate et al., 2018]). […] Color development was monitored by recording absorbance readings at 370 nm at 5 min time intervals for 30 min using a SpectraMax M3 Microplate reader (Molecular Devices, United States). […]
pIC50: −log10 of the molar value.
reported_property: pIC50

- NS(=O)(=O)C#Cc1ccccc1 [PES, 2-Phenylthynesulfonamide]: 7.49
- O=C(O[C@@H]1Cc2c(O)cc(O)cc2O[C@@H]1c1cc(O)c(O)c(O)c1)c1cc(O)c(O)c(O)c1 [EGCG, (−)-Epigallocatechin-3-gallate]: 7.86

---

test system: Asexual P. falciparum strain 3D7 parasites; experiment: Parasite growth inhibition assay (SYBR Gold); format: cell-based; details: Plasmodium falciparum; P. falciparum 3D7, asexual blood stage, 96 h, n = 3; read-out: IC50 parasite growth
reported_property: IC50 (µM)

- NS(=O)(=O)C#Cc1ccccc1 [PES, 2-Phenylthynesulfonamide]: 38.7

---

Consider the following molecules and their measured pIC50 readings.
target: PfHsp70-1-PfHop association (Plasmodium falciparum, UniProt Q8IB24+Q8ILC1); assay: ELISA for the direct association of PfHsp70-1 and PfHop; assay type: biochemical; settings: ligand PfHop, analyte PfHsp70-1
pIC50: −log10 of the molar value.
reported_property: pIC50

* NS(=O)(=O)C#Cc1ccccc1 [PES, 2-Phenylthynesulfonamide] | 7.42
* O=C(O[C@@H]1Cc2c(O)cc(O)cc2O[C@@H]1c1cc(O)c(O)c(O)c1)c1cc(O)c(O)c(O)c1 [EGCG, (−)-Epigallocatechin-3-gallate] | 7.84
